Target: Δ MT1-MMP (Δ MMP-14) (Homo sapiens, UniProt P50281)
Construct: ProMT1-MMP cDNA encoded extracellular domain of pro Δ MT1-MMP was tranfected E. coli BL21DE3
Experiment: Δ MT1-MMP (Δ MMP-14) inhibitory activities, fluorogenic substrate enzyme assay
Conditions: 37° C., 30 min, substrate 10 μM; read-out: ΔMMP-14 IC50
Experimental: Examination 3: Δ MT1-MMP (Δ MMP-14) inhibitory activities. ProMT1-MMP cDNA encoded extracellular domain of pro Δ MT1-MMP was tranfected E. coli BL21DE3, pro Δ MT1-MMP collected as inclusion body was solved using 8M urea, and it was pulified by ion exchenge column chlomatography. […] The reaction was stopped by adding of 4 volumes of sodium acetate buffer (pH 4.0), and the degradation of substrate was calculated by measurement with a fluorescence intensity (λ ex 328 nm, λ em 393 nm). […]
OBSERVATION_TYPE: IC50 (nM)
Give bare numbers, in nM.

CC(C)CCC(=O)N[C@@H]1CCN(S(=O)(=O)c2ccc(-c3ccc(O)cc3)cc2)[C@@H](C(=O)NO)C1: 100

Dear colleague, could you please provide IC50 for the compounds listed below?
1. COc1ccc(-c2ccc(S(=O)(=O)N3CC[C@@H](NC(=O)CCC(C)C)C[C@@H]3C(=O)NO)cc2)cc1
2. COc1ccc(-c2ccc(S(=O)(=O)N3CC[C@@H](NC(=O)c4ccccc4)C[C@@H]3C(=O)NO)cc2)cc1

130
95

* * *

Target: MMP-9 (gelatinase B) (Homo sapiens, UniProt P14780)
Construct: MMP-9, derived human fibrosarcome (Yagai Co. Ltd.), were used as enzyme respectively; purchased Yagai Co. Ltd; host or cells: human fibrosarcoma
Sequence (P14780 94-707): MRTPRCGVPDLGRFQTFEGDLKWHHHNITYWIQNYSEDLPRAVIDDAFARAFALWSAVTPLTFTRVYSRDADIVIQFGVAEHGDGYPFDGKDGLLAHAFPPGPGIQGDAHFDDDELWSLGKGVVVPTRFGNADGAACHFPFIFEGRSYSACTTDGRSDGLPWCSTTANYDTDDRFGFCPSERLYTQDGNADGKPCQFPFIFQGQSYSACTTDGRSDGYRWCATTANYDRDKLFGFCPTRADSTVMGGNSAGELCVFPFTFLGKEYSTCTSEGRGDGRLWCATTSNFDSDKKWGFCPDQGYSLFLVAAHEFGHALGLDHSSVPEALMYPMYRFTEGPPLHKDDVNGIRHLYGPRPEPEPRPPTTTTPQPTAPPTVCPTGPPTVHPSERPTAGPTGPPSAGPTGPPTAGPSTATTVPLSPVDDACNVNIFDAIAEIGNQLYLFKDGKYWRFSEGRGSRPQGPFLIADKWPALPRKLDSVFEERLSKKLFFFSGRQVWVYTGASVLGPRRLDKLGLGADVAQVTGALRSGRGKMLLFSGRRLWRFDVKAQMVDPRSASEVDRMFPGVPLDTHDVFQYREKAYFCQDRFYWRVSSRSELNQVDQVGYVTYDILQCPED
Test: MMP-9 (gelatinase B) inhibitory activities, fluorogenic substrate enzyme assay
Format: biochemical
Settings: 42° C., 3 h, substrate 10 μM
OBSERVATION_TYPE: log10(IC50) (log10 of the value in nM)
The common logarithm of IC50 in nM is what is listed.

// solved cases for log10(IC50) follow
CC(C)CCC(=O)N[C@@H]1CCN(S(=O)(=O)c2ccc(O)cc2)[C@@H](C(=O)NO)C1 [Compound 63]: 1.49
CC(C)CCC(=O)N[C@@H]1CCN(S(=O)(=O)c2ccc(-c3ccc(O)cc3)cc2)[C@@H](C(=O)NO)C1 [Compound 57]: 1.04

Hi! Can you tell me log10(IC50) for each of these molecules?
1. CC(C)CCC(=O)N[C@@H]1CCN(S(=O)(=O)c2cccc(-c3ccc(O)cc3)c2)[C@@H](C(=O)NO)C1 [Compound 53]
2. CC(=O)N[C@@H]1CCN(S(=O)(=O)c2ccc(-c3ccc(O)cc3)cc2)[C@@H](C(=O)NO)C1 [Compound 65]
3. COc1ccc(-c2ccc(S(=O)(=O)N3CC[C@@H](NC(=O)c4ccc([N+](=O)[O-])cc4)C[C@@H]3C(=O)NO)cc2)cc1 [Compound 75]
4. COc1ccc(-c2ccc(S(=O)(=O)N3CC[C@@H](NC(=O)c4ccccc4)C[C@@H]3C(=O)NO)cc2)cc1 [Compound 59]

3.84
1.71
1.20
1.04

The reported log10(IC50) of the molecule COc1ccc(-c2ccc(S(=O)(=O)N3CC[C@H](NC(C)=O)C[C@@H]3C(=O)NO)cc2)cc1 [Compound 82] was 2.64

* * *

Target: MMP-2 (gelatinase A) (Homo sapiens)
Sequence (P08253 110-660): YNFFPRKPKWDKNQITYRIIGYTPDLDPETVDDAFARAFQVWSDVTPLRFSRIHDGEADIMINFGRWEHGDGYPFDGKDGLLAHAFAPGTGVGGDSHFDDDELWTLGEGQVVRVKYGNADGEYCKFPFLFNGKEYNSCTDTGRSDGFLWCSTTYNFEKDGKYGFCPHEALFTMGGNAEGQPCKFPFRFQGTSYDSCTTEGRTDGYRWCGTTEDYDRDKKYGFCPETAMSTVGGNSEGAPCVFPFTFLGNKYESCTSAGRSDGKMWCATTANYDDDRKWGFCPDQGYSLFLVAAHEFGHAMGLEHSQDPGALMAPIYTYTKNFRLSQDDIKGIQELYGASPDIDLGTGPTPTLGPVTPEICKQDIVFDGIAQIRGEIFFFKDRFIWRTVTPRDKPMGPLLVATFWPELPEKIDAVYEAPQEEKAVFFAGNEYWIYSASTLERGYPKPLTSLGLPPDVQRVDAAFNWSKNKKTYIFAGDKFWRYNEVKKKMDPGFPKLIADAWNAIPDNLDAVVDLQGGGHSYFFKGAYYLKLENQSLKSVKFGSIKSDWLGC
Test: MMP-2 (gelatinase A) inhibitory activities, fluorogenic substrate enzyme assay
Conditions: 42° C., 2 h, substrate 10 μM
OBSERVATION_TYPE: pIC50
Answers are plain numbers, as −log10 of the molar value.

O=C(N[C@@H]1CCN(S(=O)(=O)c2ccc(-c3ccc(Cl)cc3)cc2)[C@@H](C(=O)O)C1)c1cccc[n+]1[O-]: 7.55
COc1ccc(OCCCCC(=O)N[C@@H]2CCN(S(=O)(=O)c3ccc(OC)cc3)[C@@H](C(=O)NO)C2)cc1: 8.82
COc1ccc(-c2ccc(S(=O)(=O)N3CC[C@@H](NC(C)=O)C[C@@H]3C(=O)NO)cc2)cc1: 9.04
COc1ccc(-c2ccc(S(=O)(=O)N3CC[C@@H](NCCCC(C)C)C[C@@H]3C(=O)NO)cc2)cc1: 8.57
COc1ccc(-c2ccccc2S(=O)(=O)N2CC[C@@H](NC(=O)CCC(C)C)C[C@@H]2C(=O)NO)cc1: 6.42

Lab note: each molecule below needs its pIC50 filled in.
1. COc1ccc(-c2cccc(S(=O)(=O)N3CC[C@@H](NC(=O)CCC(C)C)C[C@@H]3C(=O)NO)c2)cc1
2. COc1ccc(-c2ccc(S(=O)(=O)N3CC[C@H](NC(C)=O)C[C@@H]3C(=O)NO)cc2)cc1

1: 6.68; 2: 6.13

* * *

For each entry below, report its IC50 value.
Target: Δ MT1-MMP (Δ MMP-14) (Homo sapiens, UniProt P50281)
Construct: ProMT1-MMP cDNA encoded extracellular domain of pro Δ MT1-MMP was tranfected E. coli BL21DE3; made in house; host or cells: E. coli BL21DE3 (inclusion bodies, 8M urea, ion exchange)
Assay: Δ MT1-MMP (Δ MMP-14) inhibitory activities, fluorogenic substrate enzyme assay
Assay type: biochemical
Settings: 37° C., 30 min, substrate 10 μM; read-out: ΔMMP-14 IC50
Answers are plain numbers, in µM.

Hi! Can you tell me IC50 for each of these compounds?
1. COc1ccc(-c2cccc(S(=O)(=O)N3CC[C@@H](NC(=O)CCC(C)C)C[C@@H]3C(=O)NO)c2)cc1
2. COc1ccc(C(=O)N[C@@H]2CCN(S(=O)(=O)c3ccc(-c4ccc(OC)cc4)cc3)[C@@H](C(=O)NO)C2)cc1
3. COc1ccc(-c2ccccc2S(=O)(=O)N2CC[C@@H](NC(=O)CCC(C)C)C[C@@H]2C(=O)NO)cc1
4. O=C(N[C@@H]1CCN(S(=O)(=O)c2ccc(-c3ccc(O)cc3)cc2)[C@@H](C(=O)NO)C1)c1ccccc1
5. COc1ccc(-c2ccc(S(=O)(=O)N3CC[C@@H](NC(=O)c4c[nH]c5ccccc45)C[C@@H]3C(=O)NO)cc2)cc1
6. CC(C)CCC(=O)N[C@@H]1CCN(S(=O)(=O)c2ccc([N+](=O)[O-])cc2)[C@@H](C(=O)NO)C1
7. CC(C)CCC(=O)N[C@@H]1CCN(S(=O)(=O)c2ccc(-c3ccc([N+](=O)[O-])cc3)cc2)[C@@H](C(=O)NO)C1

[0.079, 0.31, 0.2, 0.13, 0.096, 2.3, 1.5]

For record `O=C(N[C@@H]1CCN(S(=O)(=O)c2ccc(-c3ccc(Cl)cc3)cc2)[C@@H](C(=O)NO)C1)c1ccccn1` the listed IC50 is 0.074
